Target: UniProt P18825
Sequence (P18825 1-462): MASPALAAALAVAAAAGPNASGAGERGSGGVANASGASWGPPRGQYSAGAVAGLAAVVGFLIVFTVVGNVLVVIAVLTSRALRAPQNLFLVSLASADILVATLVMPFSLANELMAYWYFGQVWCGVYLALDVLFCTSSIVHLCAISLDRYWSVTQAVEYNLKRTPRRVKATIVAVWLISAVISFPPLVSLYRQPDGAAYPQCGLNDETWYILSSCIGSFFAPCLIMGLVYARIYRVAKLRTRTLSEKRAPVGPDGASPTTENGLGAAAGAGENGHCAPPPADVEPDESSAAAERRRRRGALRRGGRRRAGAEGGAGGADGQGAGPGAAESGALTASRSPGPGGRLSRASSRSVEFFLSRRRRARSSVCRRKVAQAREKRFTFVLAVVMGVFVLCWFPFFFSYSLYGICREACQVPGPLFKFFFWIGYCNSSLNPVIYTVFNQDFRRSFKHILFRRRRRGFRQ
Assay: ^3H‐rauwolscine whole cell competition binding, CHO‐α2C cells
pIC50: −log10 of the molar value.
Reported pIC50 values for the following molecules.

The following molecules have reported results that may help.
molecule	pIC50
CC(C)(C)NCC(O)COc1cccc2[nH]c(=O)[nH]c12 (stereo not drawn) [CGP12177]	< 3.00
CN(C)CCCC1(c2ccc(F)cc2)OCc2cc(C#N)ccc21 (stereo not drawn) [citalopram]	< 4.00

State the recorded pIC50 for this entry: Fc1ccc([C@@H]2CCNC[C@H]2COc2ccc3c(c2)OCO3)cc1 [paroxetine]
< 5.00

====

Reported Kd values for the following compounds.
molecular target: human α2C‐adrenoceptor (Homo sapiens); test: ^3H‐rauwolscine whole cell competition binding, CHO‐α2C cells
Just the number please, in nM, no unit attached.

compound	Kd, nM
CC(C)(C)NCC(O)COc1cccc2[nH]c(C#N)cc12 (stereo not shown)	708
CNCC[C@H](Oc1cccc2ccccc12)c1cccs1	2140
Cc1nc2n(c(=O)c1CCN1CCC(c3noc4cc(F)ccc34)CC1)CCCC2O (stereo not shown)	14

API: the following record is the query input.
State the recorded Kd for this entry: CCOc1ccccc1OCCN[C@H](C)Cc1ccc(OC)c(S(N)(=O)=O)c1
389

====

molecular target: human α2C‐adrenoceptor (Homo sapiens); assay: ^3H‐rauwolscine whole cell competition binding, CHO‐α2C cells; settings: given as log KD (negative values); 3H-rauwolscine whole cell binding, CHO cells; mean ± s.e.mean
readout: Log KD α2C

The following molecules have reported results that may help.
molecule	Log KD α2C
COc1ccccc1N1CCN(CC2CN3C(=O)N(C)c4ccccc4C3=N2)CC1 (stereo not shown) [2-MPMDQ]	-7.50
COc1ccccc1N1CCN(CCCNc2c(C)c(=O)n(C)c(=O)n2C)CC1 [5-methyl-urapidil]	-5.81

(1) COc1ccccc1N1CCN(CCN2C(=O)c3ccccc3C(C)(C)C2=O)CC1 [ARC 239]
(2) Cc1ccc(OCC(O)C(C)NC(C)C)c2c1CCC2 (stereo not shown) [ICI 118551]
Lab note: record which item had the higher Log KD α2C, 1 or 2 . Answer format: the label of the selected item.
2
(2: -5.05, 1: -7.25)

====

target: human β2‐adrenoceptor (Homo sapiens); assay type: binding; conditions: ^3H‐CGP12177 whole cell binding; log values, mean ± s.e.mean; ^app = apparent KD; 'no binding to' = log top concentration; read-out: Log KD β2 (converted)
Sequence (P07550 whole entry): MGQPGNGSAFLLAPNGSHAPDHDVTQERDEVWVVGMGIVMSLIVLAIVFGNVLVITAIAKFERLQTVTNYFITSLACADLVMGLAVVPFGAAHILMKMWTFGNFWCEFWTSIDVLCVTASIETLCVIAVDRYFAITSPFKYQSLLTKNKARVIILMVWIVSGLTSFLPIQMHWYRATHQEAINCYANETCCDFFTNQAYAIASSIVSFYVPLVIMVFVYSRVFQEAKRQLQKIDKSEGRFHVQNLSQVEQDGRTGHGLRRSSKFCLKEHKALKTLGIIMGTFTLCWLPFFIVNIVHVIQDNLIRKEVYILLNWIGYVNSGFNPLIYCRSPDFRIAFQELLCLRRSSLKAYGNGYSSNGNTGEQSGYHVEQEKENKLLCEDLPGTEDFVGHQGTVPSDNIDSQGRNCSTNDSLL
readout: Kd (µM)

compound	study.system	Kd / µM
CCOc1ccccc1OCCN[C@H](C)Cc1ccc(OC)c(S(N)(=O)=O)c1 [tamsulosin]	human β2‐adrenoceptor (Homo sapiens)	0.832
COc1cc2nc(N3CCN(C(=O)c4ccco4)CC3)nc(N)c2cc1OC [prazosin]	human β2‐adrenoceptor (Homo sapiens)	7.94

(a) O=C(NC1CCN(CCc2c[nH]c3ccccc23)CC1)c1ccccc1 [indoramin]
(b) COc1ccccc1N1CCN(CCCNc2cc(=O)n(C)c(=O)n2C)CC1 [urapidil]
Lab note: record which item had the higher Kd, a or b . Answer format: the label of the selected item.
b
(b: 10 µM, a: 5.37 µM)
